Provenance of the data: paper PMC5943959

Would you mind telling me the reported Ki of each entry?
biological target: hCA IV (Homo sapiens); construct: made in house; assay: stopped-flow CO2 hydrase assay, hCA IV; format: biochemical; details: recombinant enzyme; errors ± 5–10%, 3 assays; read-out: Ki hCA IV
Sequence (P22748 19-312): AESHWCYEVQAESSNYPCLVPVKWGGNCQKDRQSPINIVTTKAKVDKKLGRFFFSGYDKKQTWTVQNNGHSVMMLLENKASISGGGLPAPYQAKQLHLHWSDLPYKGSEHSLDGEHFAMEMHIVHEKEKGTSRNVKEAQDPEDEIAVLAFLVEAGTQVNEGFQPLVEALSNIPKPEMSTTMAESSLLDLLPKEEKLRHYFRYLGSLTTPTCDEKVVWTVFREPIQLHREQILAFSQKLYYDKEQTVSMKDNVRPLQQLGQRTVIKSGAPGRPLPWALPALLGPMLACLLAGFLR

Here are 8 molecules together with their reported answers.
O=C(CSc1nnc(-c2ccncc2)s1)Nc1cc(C(=O)O)cc([N+](=O)[O-])c1 : > 50 µM
O=C(O)c1ccc(NCCc2ccc(Cl)cc2)c([N+](=O)[O-])c1 : > 50 µM
N#Cc1ccc(NCCc2ccccc2)c([N+](=O)[O-])c1 : > 50 µM
CC1=NN(c2ccc(C)cc2)C(=O)/C1=C/Nc1ccc(C(=O)O)cc1[N+](=O)[O-] : 6.03 µM
CC(C)(C)OC(=O)N1CCC(Nc2ccc(C(=O)O)cc2[N+](=O)[O-])CC1 : 9.2 µM
O=C(O)c1ccc(NCc2cccnc2)c([N+](=O)[O-])c1 : > 50 µM
CC1OC(Nc2cc(C(=O)O)cc([N+](=O)[O-])c2)C(O)C(O)C1O (stereo not drawn) : > 50 µM
CS(=O)(=O)c1ccc(C(=O)O)cc1[N+](=O)[O-] : > 50 µM

Give me Ki for each of these molecules, listed below.
1. O=C(Cc1ccccc1)Nc1ccc(C(=O)O)cc1
2. O=C(O)c1ccc(N2CCc3ccccc32)c([N+](=O)[O-])c1
3. O=C(O)c1ccc(Sc2ccccn2)c([N+](=O)[O-])c1
4. CC(=O)Nc1cccc(Nc2c([N+](=O)[O-])cc(C(=O)O)cc2[N+](=O)[O-])c1
5. O=C(O)c1ccc(Sc2nnc(-c3cccc(Br)c3)o2)c([N+](=O)[O-])c1
6. CCOC(=O)C1CCN(c2ccc(C(=O)O)cc2[N+](=O)[O-])CC1
7. O=C(O)c1ccc(Sc2ccccc2C(=O)O)c([N+](=O)[O-])c1

["> 50 µM", "> 50 µM", "> 50 µM", "> 50 µM", "5.09 µM", "> 50 µM", "> 50 µM"]
